# TARGET_OR_TEST_SYSTEM: purified human HDAC6 (Homo sapiens, UniProt Q9UBN7)
# Construct: purchased BPS Bioscience 5006
# ASSAY_METHOD_TEXT: HDAC6 Enzyme Assay
# Format: biochemical
# STUDY_CONDITIONS: compound concentration 0.412 μM, read-out: Percent Inhibition
Consider the following molecules; for each one, report its inhibition at 0.412 µM.
# output: numeric value plus its unit

Here is how some molecules turned out for inhibition at 0.412 µM.
COc1ccc(N(CCn2ccc3ccc(C(=O)NO)cc3c2=O)Cc2ccc(Cl)cc2)cc1 ... 83.2%
O=C(NO)c1ccc2c(=O)[nH]c(CNC3CCNCC3)nc2c1 ... 65.7%
Cn1cnc2cc(C(=O)NO)ccc2c1=O ... 68.8%
O=C(NO)c1ccc2ccn(CCOc3cc(Cl)cc(Cl)c3)c(=O)c2c1 ... 93%

Okay, here is my list. What is inhibition at 0.412 µM for each of these?
1. O=C(NO)c1ccc2ccn(CCN3CCCCC3)c(=O)c2c1
2. Nc1nc2cc(C(=O)NO)ccc2c(=O)[nH]1
3. O=C(NO)c1ccc2ncn(CCc3ccccn3)c(=O)c2c1
4. O=C(NO)c1ccc2ccn(CCNS(=O)(=O)c3ccc(Cl)cc3)c(=O)c2c1
5. O=C(NO)c1ccc2ccn(CCOc3ccc(-c4csnn4)cc3)c(=O)c2c1
6. O=C(NO)c1ccc2ccn(CCc3cccc4ccccc34)c(=O)c2c1
7. CCN(CC)c1cccc(OCCn2ccc3ccc(C(=O)NO)cc3c2=O)c1

1. 71.2%
2. 42.4%
3. 82.5%
4. 94%
5. 97.2%
6. 96.6%
7. 91.3%

====

Consider the following compounds; for each one, report its inhibition at 0.412 µM.
# TARGET_OR_TEST_SYSTEM: purified human HDAC6 (Homo sapiens)
# Construct: purchased BPS Bioscience 5006
# Sequence (Q9UBN7 1-1215): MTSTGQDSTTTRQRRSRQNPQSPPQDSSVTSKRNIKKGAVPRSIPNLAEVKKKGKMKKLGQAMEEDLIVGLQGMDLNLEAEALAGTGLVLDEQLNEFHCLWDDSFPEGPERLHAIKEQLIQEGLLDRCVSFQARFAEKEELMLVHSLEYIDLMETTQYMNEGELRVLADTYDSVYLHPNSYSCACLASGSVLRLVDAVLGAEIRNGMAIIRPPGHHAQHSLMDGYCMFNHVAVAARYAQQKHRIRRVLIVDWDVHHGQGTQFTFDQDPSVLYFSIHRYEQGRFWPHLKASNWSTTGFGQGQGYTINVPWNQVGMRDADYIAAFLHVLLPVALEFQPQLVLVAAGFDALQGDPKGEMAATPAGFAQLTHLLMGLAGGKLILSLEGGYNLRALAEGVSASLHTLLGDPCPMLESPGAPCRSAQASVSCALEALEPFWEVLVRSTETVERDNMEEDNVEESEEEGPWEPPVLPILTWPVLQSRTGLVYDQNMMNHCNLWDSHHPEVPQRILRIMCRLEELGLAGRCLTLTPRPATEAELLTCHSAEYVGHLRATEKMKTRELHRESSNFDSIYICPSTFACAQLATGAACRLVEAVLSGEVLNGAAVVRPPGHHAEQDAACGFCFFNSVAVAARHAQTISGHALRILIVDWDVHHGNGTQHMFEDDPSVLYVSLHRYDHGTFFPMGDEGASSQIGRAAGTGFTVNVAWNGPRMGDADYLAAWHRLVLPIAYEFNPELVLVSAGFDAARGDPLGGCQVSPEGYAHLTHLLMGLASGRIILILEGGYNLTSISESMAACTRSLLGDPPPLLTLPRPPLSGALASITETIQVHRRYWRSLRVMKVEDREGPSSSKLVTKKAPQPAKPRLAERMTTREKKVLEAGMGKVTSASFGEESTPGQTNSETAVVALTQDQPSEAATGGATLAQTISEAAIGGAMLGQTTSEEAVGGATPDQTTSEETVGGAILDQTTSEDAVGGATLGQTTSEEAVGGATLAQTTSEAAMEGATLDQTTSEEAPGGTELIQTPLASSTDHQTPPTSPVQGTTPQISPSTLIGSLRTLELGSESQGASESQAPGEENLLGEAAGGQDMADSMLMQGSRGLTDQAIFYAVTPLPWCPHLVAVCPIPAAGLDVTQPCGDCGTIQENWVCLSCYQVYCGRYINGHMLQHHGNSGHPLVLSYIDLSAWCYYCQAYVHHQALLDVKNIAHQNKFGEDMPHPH
# ASSAY_METHOD_TEXT: HDAC6 Enzyme Assay
# Type: biochemical
# STUDY_CONDITIONS: compound concentration 0.412 μM, read-out: Percent Inhibition
# output: numeric value plus its unit

Here is how some compounds turned out for inhibition at 0.412 µM.
Cc1nc(-c2ccccc2OCCn2ccc3ccc(C(=O)NO)cc3c2=O)cs1 ... 98.6%
COc1ccc(NCCCn2ccc3ccc(C(=O)NO)cc3c2=O)cc1 ... 94.3%
CCN(CC)Cc1cccc(Cn2ccc3ccc(C(=O)NO)cc3c2=O)c1 ... 89.9%
O=C(NO)c1ccc2ccn(CCCOc3cccc4c3CCC4)c(=O)c2c1 ... 96.1%

// next item, inhibition at 0.412 µM requested
Field inhibition at 0.412 µM (entry COc1ccc(NCCn2ccc3ccc(C(=O)NO)cc3c2=O)cc1 ) reads 79.1%

====

# TARGET_OR_TEST_SYSTEM: purified human HDAC6 (Homo sapiens, UniProt Q9UBN7)
# Construct: purchased BPS Bioscience 5006
# Sequence (Q9UBN7 1-1215): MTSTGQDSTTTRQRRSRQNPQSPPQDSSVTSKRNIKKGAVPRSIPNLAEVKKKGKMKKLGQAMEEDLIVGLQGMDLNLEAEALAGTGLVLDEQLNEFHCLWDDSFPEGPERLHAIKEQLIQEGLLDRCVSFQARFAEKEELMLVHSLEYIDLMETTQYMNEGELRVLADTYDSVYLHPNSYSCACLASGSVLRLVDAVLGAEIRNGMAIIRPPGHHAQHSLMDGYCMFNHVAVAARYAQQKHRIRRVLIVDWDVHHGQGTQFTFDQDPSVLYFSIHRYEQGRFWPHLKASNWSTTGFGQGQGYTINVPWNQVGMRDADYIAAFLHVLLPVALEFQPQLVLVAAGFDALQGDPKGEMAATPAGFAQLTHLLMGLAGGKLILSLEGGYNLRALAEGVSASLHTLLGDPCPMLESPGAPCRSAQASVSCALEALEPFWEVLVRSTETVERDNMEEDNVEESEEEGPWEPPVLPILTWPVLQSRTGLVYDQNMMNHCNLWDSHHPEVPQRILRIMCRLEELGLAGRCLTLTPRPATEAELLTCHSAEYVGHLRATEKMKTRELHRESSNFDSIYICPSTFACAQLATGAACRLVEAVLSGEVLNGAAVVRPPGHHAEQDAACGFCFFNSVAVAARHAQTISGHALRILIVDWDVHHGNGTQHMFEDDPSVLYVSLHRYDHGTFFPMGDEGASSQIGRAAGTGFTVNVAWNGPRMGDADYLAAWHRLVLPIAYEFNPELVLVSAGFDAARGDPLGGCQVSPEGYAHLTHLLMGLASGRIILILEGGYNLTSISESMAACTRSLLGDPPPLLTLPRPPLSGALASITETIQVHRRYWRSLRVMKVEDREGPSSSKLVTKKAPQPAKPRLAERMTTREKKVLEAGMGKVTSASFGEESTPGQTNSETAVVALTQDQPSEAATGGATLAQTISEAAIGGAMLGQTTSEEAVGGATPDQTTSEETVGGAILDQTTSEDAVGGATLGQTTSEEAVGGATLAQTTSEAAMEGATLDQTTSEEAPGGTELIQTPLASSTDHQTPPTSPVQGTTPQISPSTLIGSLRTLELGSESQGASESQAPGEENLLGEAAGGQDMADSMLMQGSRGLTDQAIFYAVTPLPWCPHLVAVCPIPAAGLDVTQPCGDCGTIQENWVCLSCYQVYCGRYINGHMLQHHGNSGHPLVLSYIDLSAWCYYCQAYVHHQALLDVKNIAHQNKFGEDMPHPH
# ASSAY_METHOD_TEXT: HDAC6 Enzyme Assay
# Assay type: biochemical
# STUDY_CONDITIONS: compound concentration 0.37 μM, read-out: Percent Inhibition
Consider the following molecules; for each one, report its inhibition at 0.37 µM.
Give bare numbers, in %.

Here is how some molecules turned out for inhibition at 0.37 µM.
O=C(NO)c1ccc2ccn(Cc3cccc(-n4ncc5ccccc54)c3)c(=O)c2c1 ... 99.5
CC(C)C(c1ccccc1)n1cnc2ccc(C(=O)NO)cc2c1=O (centres unmarked) ... 96.8
O=C(NO)c1ccc2ncn(Cc3cccc(-c4cc(C(F)(F)F)cc(C(F)(F)F)c4)c3)c(=O)c2c1 ... 84.1
Cn1c(-c2nc3cc(C(=O)NO)ccc3c(=O)[nH]2)cc2ccccc21 ... 79.9

Okay, here is my list. What is inhibition at 0.37 µM for each of these?
1. CN(C)S(=O)(=O)c1cccc(-c2cccc(CCn3cnc4ccc(C(=O)NO)cc4c3=O)c2)c1
2. CC(C)(C)OC(=O)NCCCn1ccc2ccc(C(=O)NO)cc2c1=O
3. O=C(NO)c1ccc2ncn(CCC(c3ccccc3)C3CCCCC3)c(=O)c2c1 (centres unmarked)
4. CC(C)c1ccc(-c2cccc(Cn3cnc4ccc(C(=O)NO)cc4c3=O)c2)cc1

[83.8, 94.5, 94.9, 83.6]
